Just for reference, PubChem BioAssay (NCI) is where these values come from.

- test-method-notes: NCI Yeast Anticancer Drug Screen. Data for the sgs1 mgt1 strain (AID 161);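 also: 0% = growth of cultures given vehicle only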
- experimental-parameters: S. cerevisiae sgs1 mgt1 strain, at 50.0 µM, active compounds read high
This is part of a sample that, as a whole, favours compounds with a hit. Of some 79,000 tested, about 15% had one in any assay.
Give class 1 when the value for growth inhibition is at least 90%. Give class 0 when it is less.

Here's what some known entries look like.
molecule: COc1ccc(Oc2c(OC)cc(NCCCCCNC(C)C)c3ncccc23)cc1
cat: class 1
--
molecule: N#Cc1c(-c2ccc(Cl)cc2)c(C#N)c(=O)n(NS(=O)(=O)c2ccccc2)c1S
cat: class 0
--
molecule: CC12C(=O)N(CC(=O)O)C(=O)C1(C)C1c3ccccc3C2c2ccc3ccccc3c21 (centres undefined)
cat: class 1

Query: # check: growth inhibition of Cc1c2cnccc2c(C)c2c1c1ccccc1n2Cc1ccccc1 is greater than or equal to 90%
Response: class 0

Query: # check: growth inhibition of CSc1cc2c(cc1N)Cc1cc(F)ccc1-2 is greater than or equal to 90%
Response: class 1
